Target: Voltage-gated N-type calcium channel alpha-1B subunit/Amyloid beta A4 precursor protein-binding family A member 1 (Homo sapiens, UniProt Q00975+Q02410)
Sequence (Q00975 whole entry): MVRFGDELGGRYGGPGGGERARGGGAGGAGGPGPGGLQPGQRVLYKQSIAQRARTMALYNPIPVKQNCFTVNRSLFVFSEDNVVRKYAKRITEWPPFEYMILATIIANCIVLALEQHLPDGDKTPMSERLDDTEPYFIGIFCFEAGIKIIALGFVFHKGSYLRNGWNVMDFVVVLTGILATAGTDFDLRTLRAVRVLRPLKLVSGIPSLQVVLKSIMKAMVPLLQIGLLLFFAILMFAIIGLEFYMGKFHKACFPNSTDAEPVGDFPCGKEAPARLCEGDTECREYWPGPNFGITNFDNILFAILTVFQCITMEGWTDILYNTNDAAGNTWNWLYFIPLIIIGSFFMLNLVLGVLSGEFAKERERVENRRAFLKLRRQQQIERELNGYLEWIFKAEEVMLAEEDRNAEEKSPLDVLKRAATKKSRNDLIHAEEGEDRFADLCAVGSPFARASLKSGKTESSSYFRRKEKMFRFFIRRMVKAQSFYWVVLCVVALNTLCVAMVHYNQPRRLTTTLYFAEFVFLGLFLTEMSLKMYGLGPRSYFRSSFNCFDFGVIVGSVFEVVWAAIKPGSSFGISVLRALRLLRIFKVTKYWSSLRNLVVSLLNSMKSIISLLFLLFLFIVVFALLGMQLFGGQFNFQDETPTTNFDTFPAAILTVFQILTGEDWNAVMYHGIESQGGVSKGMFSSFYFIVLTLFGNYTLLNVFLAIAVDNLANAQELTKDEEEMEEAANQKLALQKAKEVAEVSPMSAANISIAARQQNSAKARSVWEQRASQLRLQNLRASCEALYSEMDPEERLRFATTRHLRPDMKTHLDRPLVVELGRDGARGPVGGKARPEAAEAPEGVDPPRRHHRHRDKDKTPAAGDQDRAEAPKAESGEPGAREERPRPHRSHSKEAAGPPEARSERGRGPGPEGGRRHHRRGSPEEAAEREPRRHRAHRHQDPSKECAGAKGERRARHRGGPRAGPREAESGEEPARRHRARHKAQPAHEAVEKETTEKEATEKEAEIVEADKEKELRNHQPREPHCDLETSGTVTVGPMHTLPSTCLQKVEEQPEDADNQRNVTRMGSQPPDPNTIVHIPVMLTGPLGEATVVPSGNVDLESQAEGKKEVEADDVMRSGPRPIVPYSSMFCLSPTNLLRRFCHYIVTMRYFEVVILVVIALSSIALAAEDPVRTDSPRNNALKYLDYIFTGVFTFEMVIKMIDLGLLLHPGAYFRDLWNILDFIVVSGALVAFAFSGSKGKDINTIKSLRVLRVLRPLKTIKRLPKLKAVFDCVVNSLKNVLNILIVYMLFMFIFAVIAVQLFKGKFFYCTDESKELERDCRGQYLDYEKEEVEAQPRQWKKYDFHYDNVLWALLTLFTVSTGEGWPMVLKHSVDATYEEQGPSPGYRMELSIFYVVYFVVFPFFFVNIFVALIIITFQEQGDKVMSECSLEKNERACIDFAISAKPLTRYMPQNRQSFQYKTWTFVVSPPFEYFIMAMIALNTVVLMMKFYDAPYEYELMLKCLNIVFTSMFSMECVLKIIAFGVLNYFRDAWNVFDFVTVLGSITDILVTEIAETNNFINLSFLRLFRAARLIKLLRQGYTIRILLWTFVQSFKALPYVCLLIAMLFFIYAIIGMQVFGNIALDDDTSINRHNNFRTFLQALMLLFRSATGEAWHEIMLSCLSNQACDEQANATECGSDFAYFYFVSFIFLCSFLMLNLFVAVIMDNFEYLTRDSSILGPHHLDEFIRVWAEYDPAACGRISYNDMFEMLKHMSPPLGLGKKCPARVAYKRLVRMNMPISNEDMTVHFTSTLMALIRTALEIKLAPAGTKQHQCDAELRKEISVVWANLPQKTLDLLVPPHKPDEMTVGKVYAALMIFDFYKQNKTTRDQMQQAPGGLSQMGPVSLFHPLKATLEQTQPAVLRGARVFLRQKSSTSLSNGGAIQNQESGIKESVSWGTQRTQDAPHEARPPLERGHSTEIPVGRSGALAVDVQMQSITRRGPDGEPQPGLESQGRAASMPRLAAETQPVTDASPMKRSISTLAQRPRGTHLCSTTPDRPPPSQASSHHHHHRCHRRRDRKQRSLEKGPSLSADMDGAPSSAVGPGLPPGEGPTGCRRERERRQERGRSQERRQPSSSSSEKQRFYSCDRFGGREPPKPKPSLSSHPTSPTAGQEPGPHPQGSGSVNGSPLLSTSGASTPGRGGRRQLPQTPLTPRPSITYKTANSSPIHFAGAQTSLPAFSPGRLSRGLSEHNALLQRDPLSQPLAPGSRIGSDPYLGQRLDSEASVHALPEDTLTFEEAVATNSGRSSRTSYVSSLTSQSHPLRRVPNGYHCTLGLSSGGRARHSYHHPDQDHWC
Sequence (Q02410 whole entry): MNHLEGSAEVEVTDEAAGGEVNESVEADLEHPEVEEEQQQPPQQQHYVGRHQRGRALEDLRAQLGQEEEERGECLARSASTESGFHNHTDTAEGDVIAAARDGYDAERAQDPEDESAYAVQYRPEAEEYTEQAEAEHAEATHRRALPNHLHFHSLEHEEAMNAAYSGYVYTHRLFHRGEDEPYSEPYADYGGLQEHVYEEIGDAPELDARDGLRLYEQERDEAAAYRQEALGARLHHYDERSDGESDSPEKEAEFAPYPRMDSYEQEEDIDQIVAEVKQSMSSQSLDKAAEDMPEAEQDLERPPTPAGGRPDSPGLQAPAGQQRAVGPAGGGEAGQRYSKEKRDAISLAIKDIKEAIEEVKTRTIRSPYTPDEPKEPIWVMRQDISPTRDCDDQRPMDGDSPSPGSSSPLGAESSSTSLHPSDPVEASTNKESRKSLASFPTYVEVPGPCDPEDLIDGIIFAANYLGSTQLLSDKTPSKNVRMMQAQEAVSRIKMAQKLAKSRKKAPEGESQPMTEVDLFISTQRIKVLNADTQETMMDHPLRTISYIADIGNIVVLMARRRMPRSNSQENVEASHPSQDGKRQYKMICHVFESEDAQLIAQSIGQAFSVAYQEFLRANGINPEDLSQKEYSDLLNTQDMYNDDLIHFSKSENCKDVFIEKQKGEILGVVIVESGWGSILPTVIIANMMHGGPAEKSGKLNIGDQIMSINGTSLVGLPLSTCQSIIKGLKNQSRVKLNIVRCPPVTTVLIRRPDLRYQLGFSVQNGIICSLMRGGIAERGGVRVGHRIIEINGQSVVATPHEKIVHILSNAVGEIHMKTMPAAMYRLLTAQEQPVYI
Format: protein assay
The source made the active and inactive calls.
Outcome Measure: IC50

CN(C)c1nc(-c2ccccc2)[n+](C)s1 : 3.76 µM (active)
COc1cc(N2C(=O)C=CC2=O)c(OC)cc1Cl : 11.6 µM (active)
CC(=O)Oc1ccc(N2C(=O)C3C(C2=O)C2(C)C=CC3(C)O2)cc1 (centres undefined) : 5.05 µM (active)

Now consider a different molecule.
Memo: COc1ccc(/N=C2\S/C(=C\c3ccc(OC(C)C(=O)O)c(OC)c3)C(=O)N2CCc2c[nH]c3ccccc23)cc1 (centres undefined) , reported IC50: 15.8 µM (active)

# credit: ChEMBL document CHEMBL1201862
